TARGET ENTITY: HLA-A*2401 (human)
ASSAY NOTES: inhibition of 125I probe peptide binding to purified HLA; IC50 standard/IC50 test

{"BINDER": "LFRNPHQAL [HER2/neu 485-493]", "relative binding ratio": 0.0002}
{"BINDER": "RFVVIQNEDL [HER2/neu 985-994]", "relative binding ratio": 0.0002}
{"BINDER": "RWGLLLAL [HER2/neu 8-15]", "relative binding ratio": 0.025}
{"BINDER": "SMPNPEGRYTF [HER2/neu 281-291]", "relative binding ratio": 0.018}
